Numbers sourced from ChEMBL document CHEMBL2375213.

Test system: HEp-2
test_name: Antiproliferative activity against human Hep2 cells after 48 hrs by sulforhodamine B assay
Format: functional, cell-based
reported_conditions: HEp-2, 48 h
quantity_name: pIC50
// returns pIC50 (minus log10 of molar concentration), number only

>  <compound>
CC1=C2[C@H]3OC(=O)C4(CC(c5ccccc5)=NO4)[C@@H]3CC[C@@]2(C)C=CC1=O (some centres not stated)

>  <experimental_value>
4.00

$$$$

# pIC50 (compound: CC1=C2[C@H]3OC(=O)C4(C[C@@H](c5cc(F)cc(F)c5)N(c5ccccc5)O4)[C@@H]3CC[C@@]2(C)C=CC1=O (some centres not stated) ) is 4.00

# pIC50 (compound: CC1=C2[C@H]3OC(=O)C4(CC(c5ccccc5Cl)=NO4)[C@@H]3CC[C@@]2(C)C=CC1=O (some centres not stated) ) is 5.14

# pIC50 (compound: CC1=C2[C@H]3OC(=O)C4(CC(c5cccc(F)c5)=NO4)[C@@H]3CC[C@@]2(C)C=CC1=O (some centres not stated) ) is 4.00

###

Tested on: HCT-116
test_name: Antiproliferative activity against human HCT116 cells after 48 hrs by sulforhodamine B assay
Assay type: functional, cell-based
reported_conditions: HCT-116, 48 h
Below, each entry is listed with its recorded log10 IC50.
Each number you see is log10 of IC50, and the unit inside the log is µM.

The examples below pair each entry with its known result.
>  <compound>
CC1=C2[C@H]3OC(=O)C4(C[C@H](c5cccc([N+](=O)[O-])c5)N(c5ccccc5)O4)[C@@H]3CC[C@@]2(C)C=CC1=O (some centres not stated)

>  <log10 IC50>
2.00

$$$$
>  <compound>
CC1=C2[C@H]3OC(=O)C4(CC(c5ccc(Br)c(F)c5)=NO4)[C@@H]3CC[C@@]2(C)C=CC1=O (some centres not stated)

>  <log10 IC50>
1.18

$$$$
>  <compound>
CC1=C2[C@H]3OC(=O)C4(CC(c5cc(F)cc(F)c5)=NO4)[C@@H]3CC[C@@]2(C)C=CC1=O (some centres not stated)

>  <log10 IC50>
2.00

$$$$
>  <compound>
COc1ccc(C2=NOC3(C2)C(=O)O[C@@H]2C4=C(C)C(=O)C=C[C@]4(C)CC[C@H]23)cc1Br (some centres not stated)

>  <log10 IC50>
1.70

$$$$
>  <compound>
CC1=C2[C@H]3OC(=O)C4(C[C@@H](c5ccc([N+](=O)[O-])cc5)N(c5ccccc5)O4)[C@@H]3CC[C@@]2(C)C=CC1=O (single isomer, unassigned)

>  <log10 IC50>
2.00

$$$$
>  <compound>
CC1=C2[C@H]3OC(=O)C4(C[C@H](c5cc(F)cc(F)c5)N(c5ccccc5)O4)[C@@H]3CC[C@@]2(C)C=CC1=O (some centres not stated)

>  <log10 IC50>
-1.05

$$$$

# log10 IC50 (compound: COc1ccc(C2=NOC3(C2)C(=O)O[C@@H]2C4=C(C)C(=O)C=C[C@]4(C)CC[C@H]23)cc1 (some centres not stated) ) is 1.72

# log10 IC50 (compound: CC1=C2[C@H]3OC(=O)C4(CC(c5ccc(Cl)cc5Cl)=NO4)[C@@H]3CC[C@@]2(C)C=CC1=O (some centres not stated) ) is 1.46

# log10 IC50 (compound: CC1=C2[C@H]3OC(=O)C4(CC(c5c(Cl)cccc5Cl)=NO4)[C@@H]3CC[C@@]2(C)C=CC1=O (some centres not stated) ) is 1.00

# log10 IC50 (compound: CC1=C2[C@H]3OC(=O)C4(CC(c5ccc(O)cc5)=NO4)[C@@H]3CC[C@@]2(C)C=CC1=O (some centres not stated) ) is 0.91

# log10 IC50 (compound: CC1=C2[C@H]3OC(=O)C4(C[C@H](c5ccc(Br)cc5)N(c5ccccc5)O4)[C@@H]3CC[C@@]2(C)C=CC1=O (some centres not stated) ) is 2.00

# log10 IC50 (compound: CC1=C2[C@H]3OC(=O)C4(CC(c5cccc(F)c5)=NO4)[C@@H]3CC[C@@]2(C)C=CC1=O (some centres not stated) ) is 2.00

# log10 IC50 (compound: CC1=C2[C@H]3OC(=O)C4(C[C@@H](c5ccc(Br)cc5)N(c5ccccc5)O4)[C@@H]3CC[C@@]2(C)C=CC1=O (some centres not stated) ) is 1.57

# log10 IC50 (compound: CC1=C2[C@H]3OC(=O)C4(CC(c5ccc(Br)cc5)=NO4)[C@@H]3CC[C@@]2(C)C=CC1=O (some centres not stated) ) is 2.00
